System: metallo-beta-lactamase IMP-1 (Pseudomonas aeruginosa)
ASSAY_NOTES: IMP-1 metallo-beta-lactamase inhibitors, primary screen, biochemical, epi-absorbance readout, Pseudomonas aeruginosa enzyme (AID 1556);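 note: 0% = IMP-1 with DMSO and 100% = DMSO wells lacking enzyme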
CONDITION_LABEL: purified IMP-1, nitrocefin hydrolysis, epi-absorbance fluorescence; at 5.6 µM; hits give high values
Out of some 290,000 compounds screened, about 1,300 (0.45%) were called active. This excerpt belongs to a sample that is enriched for actives.
MEASUREMENT_TYPE: inhibition (%)
Answers are plain numbers, in %.

In the examples that follow, each entry is paired with its recorded inhibition.
CC(NC(=O)CCCC1CCCCC1)c1ccc(S(N)(=O)=O)cc1 (stereo not drawn)	-1.72
C=CCNC(=S)/N=c1/ccccn1Cc1ccccc1	16.2

Batch request: inhibition per item, same order as input.
1. COCc1c(C(=O)N/N=C\c2cccnc2)nnn1-c1nonc1N
2. CCCc1cc(=O)oc2c(C)c(OCC(=O)NCc3ccccn3)ccc12

1. -2.01
2. -4.36

Batch request: inhibition per item, same order as input.
1. Cn1ccc(=Nc2ccc(NC(=O)c3ccc(N=c4ccn(C)c5ccc([N+](=O)[O-])cc45)cc3)cc2)cc1
2. Cc1cc(OCC(=O)NCC(O)c2ccccc2)c2c(C)c(C)c(=O)oc2c1 (stereo not drawn)
3. CCCOc1ccc(-c2c(C(=O)N/N=C/c3ccco3)nnn2-c2nonc2N)cc1
4. O=C(NCCc1ccc(Cl)cc1)C1CC(=O)N(C2CCCCC2)C1 (stereo not drawn)
5. O=C(Nc1cccc(F)c1)NC1CCCc2ccccc21 (stereo not drawn)
6. CCc1ccc(NC(=O)Cn2nnc(C(=O)NCc3ccc4c(c3)OCO4)c2N)cc1

1: 14.8; 2: -1.48; 3: -3.51; 4: -3.24; 5: -1.14; 6: 0.66

Batch request: inhibition per item, same order as input.
1. CC(C)OCCCNC(=O)C1CC(=O)N(C2CCCCCCC2)C1 (stereo not drawn)
2. Cc1ccc(CN2CCC(n3nccc3NC(=O)CCCc3ccccc3)CC2)o1
3. Cc1nc2sc(C(=O)c3ccccc3)c(N)c2c2c1CCCC2
4. CNC(=S)NNC(=O)c1cccn(Cc2ccccc2)c1=O
5. FC(F)(F)C1CCCN(c2nsc3ccccc23)C1 (stereo not drawn)
6. CCCc1cc(=O)oc2c(C)c(OCC(=O)N3CCC(C(=O)O)CC3)ccc12
7. CCCc1cc(=O)oc2c(C)c(OCC(=O)Nc3ccccn3)ccc12
8. COc1ccccc1CC(=O)Nc1ccc(S(=O)(=O)N2CCCC2)cc1

1. -4.36
2. -1.11
3. -2.49
4. -3.24
5. -3.15
6. -2.1
7. 12.4
8. -1.76

Batch request: inhibition per item, same order as input.
1. CS(=O)(=O)N1CCN(C(=O)CSc2ccccc2)CC1
2. O=C(Nc1ccc(C(=O)N2CCCCC2)cc1)c1cccc([N+](=O)[O-])c1
3. Cc1ccc(Cn2cc(C(=O)NN)c(=O)c3ccc(F)cc32)cc1

-2.52
-1.61
-2.47

Batch request: inhibition per item, same order as input.
1. Nc1c(C(=O)c2cccs2)sc2nsc(SCCN3CCCCC3)c12
2. COc1ccc(S(=O)(=O)N2CCOC2CNC(=O)C(=O)NCc2ccncc2)cc1C (stereo not drawn)

6.4
-3.35

---

I'd be grateful if you could share measured inhibition for these entries.
Tested on: metallo-beta-lactamase IMP-1 (Pseudomonas aeruginosa)
ASSAY_NOTES: IMP-1 metallo-beta-lactamase inhibitors, primary screen, biochemical, epi-absorbance readout, Pseudomonas aeruginosa enzyme (AID 1556);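 note: 0% = IMP-1 with DMSO and 100% = DMSO wells lacking enzyme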
CONDITION_LABEL: purified IMP-1, nitrocefin hydrolysis, epi-absorbance fluorescence; at 5.6 µM; hits give high values
The campaign covered roughly 290,000 compounds. About 1,300 (0.45%) were called active. This is one part of a sample in which actives are shown more often than they occur.
Numbers only, in %.

In the examples that follow, each entry is paired with its recorded inhibition.
O=C1CSC(=S)N1/N=C/c1ccc(O)c([N+](=O)[O-])c1	10.3
CCCOC1CCCN(C(=O)c2cc(COc3cncc(Cl)c3)on2)C1 (stereo unspecified)	-0.48
CN1C/C(=C/c2cccs2)C(=O)/C(=C\c2cccs2)C1	0.42
COc1ccc(NC(=O)CCC(=O)Nc2nnc(C3CCCCC3)s2)cc1	-2.6
O=C(CN1CCN(c2ccc(O)cc2)CC1)Nc1ccc(-c2ccccc2)cc1	-3.22

Batch request: inhibition per item, same order as input.
1. CSC1=N/C(=C\C=C\c2cccs2)C(=O)S1
2. COc1ccc2c(CC(=O)Nc3nnc(C4CC4)s3)coc2c1
3. Cc1occc1C(=O)NC1CCCN(Cc2ccc(CC(C)C)cc2)C1 (stereo unspecified)
4. Cc1cc2occ(CC(=O)NNC(=O)c3ccccc3F)c2cc1C
5. CCSc1nnc(SCC(=O)NNC(=O)c2ccccc2F)s1
6. Cc1cccc2c1cnn2C(=O)CCC(=O)NC1CCCCC1

12.2
68.4
-3.33
7.82
-3.43
-3.55
